# Test system: Salmonella enterica serovar Typhimurium SL1344
# RECORDED_CONDITIONS: LPM pH 5.8
Counter-ions that a name gives are not always drawn.
// reported MIC per item

Solved entries (count: 3):
CCCCCN(C)CCC(O)(P(=O)(O)O)P(=O)(O)O [IBANDRONATE SODIUM]: > 50 µM
CO[C@H]1O[C@@H]2O[C@@]3(C)CC[C@H]4[C@H](C)CC[C@@H]([C@H]1C)[C@@]24OO3 [ARTEMETHER]: 50 µM
CN(C)CC(c1ccc(O)cc1)C1(O)CCCCC1 (stereo not drawn) [DESVENLAFAXINE SUCCINATE]: > 50 µM

## Task May I ask what MIC has been recorded for CNCCCC12CCC(c3ccccc31)c1ccccc12 [MAPROTILINE HYDROCHLORIDE] ?
## Result > 50 µM

## Task Please look up its MIC: Cc1ccc(Nc2c(F)cccc2Cl)c(CC(=O)O)c1 [LUMIRACOXIB]
## Result > 50 µM

## Task State the recorded MIC for this entry: CNC(=O)Oc1ccc2c(c1)[C@]1(C)CCN(C)[C@@H]1N2C [PHYSOSTIGMINE SALICYLATE]
## Result 12.5 µM

## Task Recorded MIC for CCn1cc(C(=O)O)c(=O)c2cc(F)c(N3CCN(C)CC3)cc21 [PEFLOXACINE MESYLATE] , please?
## Result ≤ 0.78 µM

## Task What measured MIC goes with CN(C)[C@@H]1C(O)=C(C(N)=O)C(=O)[C@@]2(O)C(O)=C3C(=O)c4c(O)cccc4[C@@](C)(O)[C@H]3C[C@@H]12 [TETRACYCLINE HYDROCHLORIDE] ?
## Result ≤ 0.78 µM
